Recorded inhibition values for a group of compounds are listed next.
target: Testis-specific serine/threonine-protein kinase 1 (Homo sapiens); conditions: at 1 µM;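 further: reported value is the mean inhibition, from the GSK PKIS kinase screening panel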
Measurement label: inhibition (%)

1) Nc1ncnc2occ(-c3ccc(NC(=O)Nc4cc(C(F)(F)F)cc(C(F)(F)F)c4)cc3)c12	-1.46
2) COc1ccc(-c2coc3ncnc(N)c23)cc1	3.27
3) CCn1c(-c2nonc2N)nc2cnc(Oc3cccc(NC(=O)c4ccc(OCCN5CCOCC5)cc4)c3)cc21	72.8
4) CCn1c(-c2nonc2N)nc2c(C#CC(C)(C)O)nc(CN3CCCC3)cc21	9.75
5) COc1ccc(COc2ccc(Cc3cnc(N)nc3N)cc2OC)cc1	-1.27
6) CS(=O)(=O)Nc1ccc(N/C=C2\C(=O)Nc3ccccc32)cc1	2.2
7) Cc1ccc(C(=O)NC2CCCCC2)cc1-c1ccc(C(=O)NCC2CC2)cc1	-1.51
8) CS(=O)(=O)CCNCc1ccc(-c2ccc3ncnc(Nc4ccc(OCc5ccccc5)c(Cl)c4)c3c2)o1	1.74
9) CS(=O)(=O)CCNCc1ccc(-c2ccc3ncnc(Nc4ccc(OCc5cccc(F)c5)c(C(F)(F)F)c4)c3c2)o1	5.61
10) CCn1c(-c2nonc2N)nc2cncc(C(=O)N3CCNCC3)c21	5.83
11) CCc1cccc(NC(=O)Nc2ccc(Oc3ccc4nc(NC(=O)OC)[nH]c4c3)cc2)c1	1.11
12) Cc1cc(O)cc(C)c1/C=C/c1cncc(-c2nn[nH]n2)c1	2.61
13) COc1cc2ncn(-c3cc(O[C@H](C)c4ccccc4Cl)c(C(N)=O)s3)c2cc1OC	8.45
14) CS(=O)(=O)CCN(CC#N)Cc1ccc(-c2ccc3ncnc(Nc4ccc(OCc5cccc(F)c5)c(Cl)c4)c3c2)o1	1.5
15) CN1CCC(C(=O)Nc2n[nH]c3nnc(-c4ccccc4)cc23)CC1	6.95
16) NC(=O)c1ccc(-c2nc(-c3ccccn3)c(-c3ccc4c(c3)OCO4)[nH]2)cc1	0.88
17) Nc1ncnc2occ(-c3ccc(NC(=O)Nc4cccc(C(F)(F)F)c4)cc3)c12	4.9
18) COc1cc2ncn(-c3cc(O[C@@H](C)c4ccccc4Cl)c(C(N)=O)s3)c2cc1OC	5.73

----------
test system: Tyrosine-protein kinase ABL1 (Homo sapiens), P00519 [Y253F]; conditions: at 1 µM
Binning of inhibition into classes: low range = under 6%, mid range = from 6% up to 30%, high range = 30% and over

1) CC(C)=Cc1cccc2c1/C(=N/Nc1ccc(S(N)(=O)=O)cc1)C(=O)N2	mid range
2) CCn1c(-c2nonc2N)nc2c(N3CCCC3)nccc21	low range
3) CS(=O)(=O)Nc1ccc(N/C=C2\C(=O)Nc3ccccc32)cc1	mid range
4) COc1cc2ncn(-c3cc(OCc4ccccc4Cl)c(C(N)=O)s3)c2cc1OC	high range
5) COc1cc2ncn(-c3cc(OCc4ccccc4C(F)(F)F)c(C(N)=O)s3)c2cc1OC	mid range
6) CCn1c(-c2nonc2N)nc2cnc(Oc3cccc(NC(=O)c4ccc(OCCN5CCOCC5)cc4)c3)cc21	low range
7) Cc1nn(C)c2cc(N(C)c3ccnc(Nc4cccc(S(N)(=O)=O)c4)n3)ccc12	high range
8) CNC(=O)c1cncc(/C=C/c2c(Cl)cccc2Cl)c1	high range
9) O=C1NC(=O)C(c2ccccc2Cl)=C1Nc1cccc(O)c1	low range
10) COc1ccccc1Nc1ncc(-c2ccccc2)o1	mid range
11) COc1cc2c(cc1Nc1nc(N3CCc4ccccc43)c3cc[nH]c3n1)N(C(=O)CN(C)C)CC2	low range
12) c1cnn2ncc(-c3ccnc(Nc4ccc5c(c4)OCCO5)n3)c2c1	high range
13) COc1cc(C=NNc2ncnc3c2cnn3-c2ccccc2)ccc1O	high range
14) Fc1cccc(COc2ccc(Nc3ncnc4sc(-c5cccs5)cc34)cc2Cl)c1	low range
15) Nc1ncnc2occ(-c3ccc(NC(=O)Nc4cccc(C(F)(F)F)c4)cc3)c12	high range

----------
tested on: Platelet-derived growth factor receptor alpha (Homo sapiens), P16234 [D842V]; conditions: at 1 µM
Sequence (P16234 whole entry D842V): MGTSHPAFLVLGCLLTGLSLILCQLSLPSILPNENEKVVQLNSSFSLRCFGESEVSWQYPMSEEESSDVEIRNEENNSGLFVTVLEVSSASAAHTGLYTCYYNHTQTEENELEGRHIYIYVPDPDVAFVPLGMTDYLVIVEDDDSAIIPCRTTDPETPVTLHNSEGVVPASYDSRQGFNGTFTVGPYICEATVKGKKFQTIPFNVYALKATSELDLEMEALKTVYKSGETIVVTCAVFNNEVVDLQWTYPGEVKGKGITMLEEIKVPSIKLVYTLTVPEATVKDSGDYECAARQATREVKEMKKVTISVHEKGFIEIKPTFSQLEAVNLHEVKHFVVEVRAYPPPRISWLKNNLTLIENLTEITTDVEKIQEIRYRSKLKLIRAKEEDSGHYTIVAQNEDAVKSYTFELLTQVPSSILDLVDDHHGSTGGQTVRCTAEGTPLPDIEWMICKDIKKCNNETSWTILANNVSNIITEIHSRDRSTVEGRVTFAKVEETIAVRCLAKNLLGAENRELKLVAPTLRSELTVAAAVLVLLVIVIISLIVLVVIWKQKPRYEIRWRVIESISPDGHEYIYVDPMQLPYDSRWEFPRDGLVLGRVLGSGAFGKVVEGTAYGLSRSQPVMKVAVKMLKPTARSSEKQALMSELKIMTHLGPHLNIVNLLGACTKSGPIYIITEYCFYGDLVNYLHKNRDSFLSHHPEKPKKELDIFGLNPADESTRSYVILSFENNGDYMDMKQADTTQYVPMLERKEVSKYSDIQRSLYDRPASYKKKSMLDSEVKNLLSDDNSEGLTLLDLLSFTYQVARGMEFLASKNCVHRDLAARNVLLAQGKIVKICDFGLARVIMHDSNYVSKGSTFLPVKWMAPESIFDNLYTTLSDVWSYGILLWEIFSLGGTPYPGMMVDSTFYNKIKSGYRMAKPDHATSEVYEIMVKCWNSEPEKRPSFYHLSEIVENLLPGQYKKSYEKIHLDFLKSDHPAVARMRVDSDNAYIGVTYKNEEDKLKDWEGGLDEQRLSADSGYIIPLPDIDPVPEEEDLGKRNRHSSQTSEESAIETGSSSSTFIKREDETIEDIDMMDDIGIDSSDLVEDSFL
Measurement label: inhibition (%)

1. O=C1Nc2ccc(C(=O)c3ccco3)cc2C1=Cc1cc(Cl)c(O)c(Cl)c1	19.8
2. c1cnn2ncc(-c3ccnc(Nc4ccc5c(c4)OCCO5)n3)c2c1	40.6
3. CCn1c(-c2nonc2N)nc2c(C#CC(C)(C)O)nc(CN3CCCC3)cc21	5.71
4. COc1cc2ncn(-c3cc(OCc4ccccc4Cl)c(C(N)=O)s3)c2cc1OC	82.2
5. COc1ccc(-c2nn3ncccc3c2-c2ccnc(Nc3ccc(Cl)c(C(F)(F)F)c3)n2)cc1	1.8
6. CNC(=O)c1cncc(/C=C/c2c(Cl)cccc2Cl)c1	4.33
7. NCc1ccc(-c2nc(-c3ccc(Cl)c(O)c3)c(-c3ccncc3)[nH]2)cc1	31
8. COc1ccc(-c2coc3ncnc(N)c23)cc1	6.25
9. CC1=C(C(=O)Nc2ccc3[nH]ncc3c2)C(c2ccc3ccccc3c2)CC(=O)N1 (centres undefined)	5.83

----------
biological target: Fibroblast growth factor receptor 3 (Homo sapiens) (UniProt P22607); conditions: at 1 µM;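 further: values reported are mean percent inhibition of FGFR3 activity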
Sequence (P22607 23-806 limits assumed): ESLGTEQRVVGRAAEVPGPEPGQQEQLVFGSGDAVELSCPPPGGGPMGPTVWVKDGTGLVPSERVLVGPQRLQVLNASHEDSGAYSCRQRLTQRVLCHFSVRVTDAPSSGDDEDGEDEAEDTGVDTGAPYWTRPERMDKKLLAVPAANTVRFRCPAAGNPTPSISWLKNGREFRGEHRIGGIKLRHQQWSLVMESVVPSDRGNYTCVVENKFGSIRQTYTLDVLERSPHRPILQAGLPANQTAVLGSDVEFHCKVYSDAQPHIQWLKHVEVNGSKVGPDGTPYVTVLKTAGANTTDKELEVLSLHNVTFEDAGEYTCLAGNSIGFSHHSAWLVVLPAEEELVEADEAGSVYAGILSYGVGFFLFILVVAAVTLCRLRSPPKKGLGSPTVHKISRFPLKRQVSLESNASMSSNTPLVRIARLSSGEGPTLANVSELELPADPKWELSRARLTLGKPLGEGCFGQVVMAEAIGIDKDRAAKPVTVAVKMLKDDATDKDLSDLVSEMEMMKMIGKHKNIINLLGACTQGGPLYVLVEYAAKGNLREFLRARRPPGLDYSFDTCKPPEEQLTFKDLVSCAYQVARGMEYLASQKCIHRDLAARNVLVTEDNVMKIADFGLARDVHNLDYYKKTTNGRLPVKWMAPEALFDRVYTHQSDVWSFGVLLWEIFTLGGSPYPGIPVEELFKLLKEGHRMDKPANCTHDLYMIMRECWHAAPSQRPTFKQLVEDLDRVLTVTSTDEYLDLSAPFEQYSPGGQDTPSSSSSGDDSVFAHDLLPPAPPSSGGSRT
Rule: t for inhibition not less than 20%, f for anything less.

1) COC(=O)Nc1nc2cc(Oc3cccc(NC(=O)Nc4cc(C(F)(F)F)ccc4F)c3)ccc2[nH]1	f
2) COc1cc2ncn(-c3cc(OCc4ccccc4C(F)(F)F)c(C(N)=O)s3)c2cc1OC	f
3) NS(=O)(=O)c1ccc(N/N=C2\C(=O)Nc3ccc(C(=O)NCCc4c[nH]cn4)cc32)cc1	f
4) CC1=C(C(=O)Nc2ccc3[nH]ncc3c2)C(c2ccc3ccccc3c2)CC(=O)N1 (stereo not given)	t
5) O=C1Nc2ccc(C(=O)c3ccco3)cc2C1=Cc1cc(Cl)c(O)c(Cl)c1	f

----------
target: NT-3 growth factor receptor (Homo sapiens); settings: at 1 µM;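 further: mean TRKC inhibition from the GSK PKIS kinase inhibitor set, with assays run by Nanosyn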
Entries get a class label from measured inhibition. See ranges: lower bin (below 4%), middle bin (4% to below 30%), upper bin (30% or more)

1. COc1cc2ncn(-c3cc(OCc4ccccc4Cl)c(C(N)=O)s3)c2cc1OC	middle bin
2. COc1cc2c(cc1Nc1nc(N3CCc4ccccc43)c3cc[nH]c3n1)N(C(=O)CN(C)C)CC2	middle bin
3. O=C1Nc2ccc(C(=O)c3ccco3)cc2C1=Cc1cc(Cl)c(O)c(Cl)c1	upper bin
4. COc1ccc2cc(-c3c(-c4ccncc4)nc(-c4ccc([S+](C)[O-])cc4)n3C)ccc2c1 (stereo not drawn)	lower bin
5. CC(C)=Cc1cccc2c1/C(=N/Nc1ccc(S(N)(=O)=O)cc1)C(=O)N2	upper bin
6. NS(=O)(=O)c1ccc(N/N=C2\C(=O)Nc3ccc(C(=O)NCCc4c[nH]cn4)cc32)cc1	upper bin
7. O=C1NC(=O)C(c2cccc(Cl)c2)=C1Nc1ccc(O)c(Cl)c1	lower bin
8. Nc1ncnc2occ(-c3ccc(NC(=O)Nc4cccc(C(F)(F)F)c4)cc3)c12	upper bin
9. Cc1cc(O)cc(C)c1/C=C/c1cncc(-c2nn[nH]n2)c1	middle bin
10. CS(=O)(=O)CCNCc1nc(-c2ccc3ncnc(Nc4ccc(F)c(Cl)c4)c3c2)cs1	lower bin
11. O=C(Nc1n[nH]c2nc(-c3ccco3)c(Br)cc12)C1CC1	middle bin
12. CCn1c(-c2nonc2N)nc2cncc(C(=O)N3CC[C@H](N)C3)c21	lower bin

----------
Recorded inhibition, one value per entry.
target: ALK tyrosine kinase receptor (Homo sapiens) (UniProt Q9UM73); conditions: at 1 µM;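 further: values are mean percent inhibition of ALK, screened as part of the GSK PKIS panel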
Sequence (Q9UM73 19-1620 limits assumed): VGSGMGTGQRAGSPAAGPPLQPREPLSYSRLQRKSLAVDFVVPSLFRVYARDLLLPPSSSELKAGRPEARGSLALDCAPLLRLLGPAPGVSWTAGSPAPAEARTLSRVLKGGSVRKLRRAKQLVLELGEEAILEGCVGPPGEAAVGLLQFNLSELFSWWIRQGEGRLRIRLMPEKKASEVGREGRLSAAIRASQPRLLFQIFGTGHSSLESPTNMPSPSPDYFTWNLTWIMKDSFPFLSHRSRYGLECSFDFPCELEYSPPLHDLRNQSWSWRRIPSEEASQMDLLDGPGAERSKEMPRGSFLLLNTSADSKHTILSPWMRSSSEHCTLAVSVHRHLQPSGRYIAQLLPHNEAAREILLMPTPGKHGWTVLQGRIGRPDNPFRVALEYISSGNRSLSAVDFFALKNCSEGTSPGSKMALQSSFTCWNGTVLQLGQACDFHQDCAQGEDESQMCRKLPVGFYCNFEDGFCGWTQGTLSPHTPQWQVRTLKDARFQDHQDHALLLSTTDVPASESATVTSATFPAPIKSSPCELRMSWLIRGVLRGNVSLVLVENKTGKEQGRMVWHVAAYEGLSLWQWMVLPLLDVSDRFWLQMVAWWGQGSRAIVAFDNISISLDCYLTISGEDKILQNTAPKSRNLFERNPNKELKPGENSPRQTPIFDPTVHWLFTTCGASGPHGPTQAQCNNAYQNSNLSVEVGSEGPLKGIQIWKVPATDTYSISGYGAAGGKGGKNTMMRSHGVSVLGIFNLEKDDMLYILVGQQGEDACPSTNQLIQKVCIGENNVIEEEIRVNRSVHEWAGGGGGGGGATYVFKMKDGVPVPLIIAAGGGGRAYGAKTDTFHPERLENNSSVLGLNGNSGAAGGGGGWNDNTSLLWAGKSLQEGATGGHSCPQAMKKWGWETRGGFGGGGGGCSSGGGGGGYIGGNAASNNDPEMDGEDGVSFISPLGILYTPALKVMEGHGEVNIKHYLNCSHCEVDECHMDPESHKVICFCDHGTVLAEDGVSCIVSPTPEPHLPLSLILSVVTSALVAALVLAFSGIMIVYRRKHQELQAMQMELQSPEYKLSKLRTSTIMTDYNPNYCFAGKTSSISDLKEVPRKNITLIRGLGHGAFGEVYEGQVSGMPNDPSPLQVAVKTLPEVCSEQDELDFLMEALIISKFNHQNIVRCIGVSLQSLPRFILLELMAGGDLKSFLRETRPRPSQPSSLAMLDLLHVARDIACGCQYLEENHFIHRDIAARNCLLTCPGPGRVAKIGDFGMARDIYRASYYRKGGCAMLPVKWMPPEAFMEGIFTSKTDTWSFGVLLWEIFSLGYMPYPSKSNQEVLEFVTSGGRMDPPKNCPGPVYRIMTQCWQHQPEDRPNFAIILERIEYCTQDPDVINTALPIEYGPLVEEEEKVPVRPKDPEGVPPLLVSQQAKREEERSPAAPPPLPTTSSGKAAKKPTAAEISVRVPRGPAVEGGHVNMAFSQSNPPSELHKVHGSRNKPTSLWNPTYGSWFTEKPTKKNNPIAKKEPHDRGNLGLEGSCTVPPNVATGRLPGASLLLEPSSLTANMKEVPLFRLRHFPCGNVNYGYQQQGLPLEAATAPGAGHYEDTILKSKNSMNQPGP
Measurement label: inhibition (%)

1. Cc1nn(C)c2cc(N(C)c3ccnc(Nc4cccc(S(N)(=O)=O)c4)n3)ccc12	19.2
2. COc1cc(C)c(NC(=O)CN(C)C)cc1Nc1nc(Nc2cccc(F)c2C(N)=O)c2cc[nH]c2n1	88.9
3. O=C1Nc2ccc(C(=O)c3ccco3)cc2C1=Cc1cc(Cl)c(O)c(Cl)c1	20.8
4. CC(C)=Cc1cccc2c1/C(=N/Nc1ccc(S(N)(=O)=O)cc1)C(=O)N2	10.4
5. CCn1c(-c2nonc2N)nc2c(C#CC(C)(C)O)nc(CN3CCCC3)cc21	0.01
6. COc1ccc(COc2ccc(Cc3cnc(N)nc3N)cc2OC)cc1	0.01
7. CS(=O)(=O)CCNCc1ccc(-c2ccc3ncnc(Nc4ccc(OCc5cccc(F)c5)c(C(F)(F)F)c4)c3c2)o1	2.6
8. CC1=C(C(=O)Nc2ccc3[nH]ncc3c2)C(c2ccc3ccccc3c2)CC(=O)N1 (stereo not given)	7.11
9. COC(=O)Nc1nc2cc(Oc3cccc(NC(=O)Nc4cc(C(F)(F)F)ccc4F)c3)ccc2[nH]1	0.13
10. NS(=O)(=O)c1cccc(-c2ccc3c(NC(=O)C4CC4)n[nH]c3c2)c1	-1.06

----------
system: Receptor-type tyrosine-protein kinase FLT3 (Homo sapiens), P36888 [D835Y]; settings: at 1 µM
Measurement label: inhibition (%)

1. CCn1c(-c2nonc2N)nc2c(N3CCCC3)nccc21	-4.08
2. CS(=O)(=O)CCN(CC#N)Cc1ccc(-c2ccc3ncnc(Nc4ccc(OCc5cccc(F)c5)c(Cl)c4)c3c2)o1	0.21
3. CS(=O)(=O)CCNCc1ccc(-c2ccc3ncnc(Nc4ccc(OCc5ccccc5)c(Cl)c4)c3c2)o1	-0.19
4. COc1ccc(COc2ccc(Cc3cnc(N)nc3N)cc2OC)cc1	-1.91
5. c1cnn2ncc(-c3ccnc(Nc4ccc5c(c4)OCCO5)n3)c2c1	36.1
6. CCn1c(-c2nonc2N)nc2cncc(C(=O)N3CCNCC3)c21	-1.93

These data points were gathered from ChEMBL document CHEMBL1961873.
